- method_notes: NCI Yeast Anticancer Drug Screen. Data for the bub3 strain (AID 167)
- recorded_conditions: S. cerevisiae bub3 mutant strain, at 5.0 µM (retest, dose inferred, filed as 0.5)
- Protocol: Growth inhibition of yeast strains with defined genetic alterations is measured as a screen for potential anti-cancer activity. Selected strains with alterations in DNA damage repair or cell cycle control were exposed to compounds and growth inhibition was measured relative to vehicle treated controls. The strain used in this assay is bub3
About 79,000 compounds went through this panel and 15% of them were active in at least one assay; those are over-represented in the sample as a whole. Active and inactive are the calls of the source. No stated cut-off is given here; in the data, active means growth inhibition above about 70%; inactive means the rest.
# output must be one of yes (active), no (inactive)

CCCCCCCCCCCCCCCCCCOCC(COP(=O)([O-])OCC[N+](C)(C)C)OC (stereo unspecified)	no
[N-]=[N+]=CC(=O)OCC1NC(=O)C(COC(=O)C=[N+]=[N-])NC1=O (stereo unspecified)	no
Cc1n(-c2ccccc2)c2c([n+]1Cc1ccc([N+](=O)[O-])cc1)C(=O)c1ccccc1C2=O	no

Query string: Record lookup: outcome of this test for COC1/C=C\C=C(/C)C(=O)Nc2cc3nc4ccc(Br)cc4oc-3c(c2=O)CC(C)CC(OC)C(O)C(C)/C=C(\C)C1OC(N)=O (stereo unspecified) ?
Result string: yes

Query string: Recorded call for CCOC(=O)c1ccc(NCc2ccc3ccccc3n2)cc1 ?
Result string: no

Query string: Hello, I am checking results. What call was entered for COc1ccc(COc2ccc(C(=O)CCN3CCOCC3)cc2)cc1 ?
Result string: no

Query string: Short answer needed: outcome of this test for Cc1c(-c2ccccc2)ccnc1/C=N/NC(N)=S ?
Result string: no

Query string: Record lookup: outcome of this test for CCO/C=C1\SC(=S)N(c2cccc(O)c2)C1=O ?
Result string: no

Query string: Could you check what this test reported for COc1cc(/C=C/C(=O)NCCCCN=[N+]=[N-])ccc1OCc1ccccc1 ?
Result string: no

Query string: Record request — test call for Cc1nc2c(ccc3[nH]c4ccccc4c32)s1
Result string: no

Query string: Status in this test for NC(CCCCNC(=O)c1ccccc1)C(=O)O (stereo unspecified) ?
Result string: no

---

- method_notes: NCI Yeast Anticancer Drug Screen. Data for the sgs1 mgt1 strain (AID 161);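 further: 0% = growth of cultures given vehicle only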
- recorded_conditions: S. cerevisiae sgs1 mgt1 strain, at 50.0 µM, hits give high values
About 79,000 compounds went through this panel and 15% of them were active in at least one assay; those are over-represented in the sample as a whole.
# key: entry, value: growth inhibition
Unit % implied. Number only.

Here's what some known entries look like.
[N-]=[N+]=NC(=O)Nc1cccc(C(F)(F)F)c1	98.5
C=C1C(=O)N2c3ccccc3C(C)(C)C2(S)C(=O)N1C (stereo unspecified)	96.5
CCC1CCCC(=O)C1 (stereo unspecified)	14.1
Oc1c(Cl)c(Cl)c(Cl)c2ccccc12	95.9
CCOC(=O)[C@H]1Nc2ccc([N+](=O)[O-])cc2C2c3ccccc3CC21 (stereo partly specified)	91.2

Query string: For the compound CC[N](CC)[Ge]([CH2]C)[CH2]C.C[CH2][Ge]([CH2]C)[CH2]C , give its measured growth inhibition value.
Result string: 90

---

- method_notes: NCI Yeast Anticancer Drug Screen. Data for the rad50 strain (AID 155);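 further: 0% = growth of vehicle-only cultures of the same strain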
- recorded_conditions: S. cerevisiae rad50 strain growth inhibition; at 5.0 µM (retest, dose inferred, filed as 0.5); hits give high values
About 79,000 compounds went through this panel and 15% of them were active in at least one assay; those are over-represented in the sample as a whole.
This section presents compounds with their documented growth inhibition values.
Quick note: give the figure in %, leave out the unit.

Consider the following illustrative entries.
COC(=O)C1OC(OC(C)=O)C(OC(C)=O)C(OC(C)=O)C1OC(C)=O (configuration not stated)	-4
Oc1ccc(/C=N/NC(=S)NN2CCOCC2)nc1	38
Fc1ccc(/C=C2\COCC3=C2NC(=S)NC3c2ccc(F)cc2)cc1 (configuration not stated)	32

Query string: Specify measured growth inhibition for Fc1cccc(CSC(=S)Nc2ccc(F)c(F)c2)c1 .
Result string: 12

Query string: Answer with the recorded growth inhibition of O=S(=O)(O)c1ccc(NN(c2c(O)ccc3ccccc23)S(=O)(=O)O)cc1 only.
Result string: -12

---

- method_notes: NCI Yeast Anticancer Drug Screen. Data for the rad50 strain (AID 155);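 further: 0% = growth of vehicle-only cultures of the same strain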
- recorded_conditions: S. cerevisiae rad50 strain growth inhibition; at 50.0 µM (retest, dose inferred, filed as 5.0); hits give high values
Compounds without any hit were thinned out: in the full panel of roughly 79,000, 15% have a hit.
Mark 1 for reported growth inhibition of 20% or greater; mark 0 for anything smaller.

COc1ccc(C2c3cc4c(cc3OC(NNC(N)=O)C2C)OCO4)cc1 (configuration not stated)	1

Query string: Does the reported growth inhibition for Cc1cc(=O)[nH]c2ccc(Cc3ccc(N)cc3)cc12 fall at or above the 20% mark?
Result string: 0

Query string: Determine whether measured growth inhibition meets or exceeds 20% for CCN(CC)CCC(=O)/C=C/c1ccccc1
Result string: 1

Query string: Answer whether growth inhibition of CN(C)c1ccc(/C=C/c2ccc3ccccc3[n+]2C)cc1 is greater than or equal to 20%.
Result string: 1

Query string: Decide: growth inhibition of COC(=O)c1nnn(-c2ccc(S(N)(=O)=O)cc2)c1N >= 20%?
Result string: 0

Query string: Hi, just wondering whether COc1cc2c(cc1O)C1CN(C2)Cc2cc(OC)c(O)cc21 shows growth inhibition of 20% or higher.
Result string: 1

Query string: I'd appreciate it if you could say whether C[N+]1(C)CCC(c2ccccc2)(c2ccccc2)C(=O)C1 has growth inhibition at least equal to 20%.
Result string: 0

Query string: Assess whether reported growth inhibition for CSc1ccc(N2C(=O)CSC2=S)cc1Cl sits at 20% or higher.
Result string: 1

Query string: I'd appreciate it if you could say whether Cc1ccccc1N=Nc1ccc(N=Nc2ccc(N)nc2N)c(C)c1 has growth inhibition at least equal to 20%.
Result string: 0

Query string: Check the entry O=C1c2cccc(O)c2C(=O)c2cccc(O)c21 : does growth inhibition equal or exceed 20%?
Result string: 0

Query string: Check the entry COc1cccc(NC(=S)C(C#N)C(=O)Nc2cccc(C(F)(F)F)c2)c1 (configuration not stated) : does growth inhibition equal or exceed 20%?
Result string: 1

Query string: Hi, just wondering whether O=C1/C(=C/c2ccc(Cl)cc2)Sc2scc(-c3cccc([N+](=O)[O-])c3)[n+]21 shows growth inhibition of 20% or higher.
Result string: 1

---

- method_notes: NCI Yeast Anticancer Drug Screen. Data for the mec2-1 strain (AID 157)
- recorded_conditions: S. cerevisiae mec2-1 strain, at 50.0 µM (retest, dose inferred, filed as 5.0), hits give high values
Compounds without any hit were thinned out: in the full panel of roughly 79,000, 15% have a hit.
Class Satisfied: growth inhibition at least 40%. Class Not satisfied: growth inhibition below 40%.

These solved cases illustrate the format of a correct answer.
[N-]=[N+]=NC(=O)Nc1cccc(C(F)(F)F)c1	Satisfied
O=C1C(CN2CCOCC2)CCCC1CN1CCOCC1 (stereo unspecified)	Satisfied
Cc1nc2cc(Cl)ccc2n1-c1ccccc1	Satisfied

Pending compound:
Query string: Exam item: decide whether the reported growth inhibition for CC1(C)N(OC2CCCCO2)C(c2ccccc2)C(c2ccccc2)=[N+]1[O-] (stereo unspecified) is at least 40%.
Result string: Not satisfied

---

- method_notes: NCI Yeast Anticancer Drug Screen. Data for the sgs1 mgt1 strain (AID 161);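 further: 0% = growth of cultures given vehicle only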
- recorded_conditions: S. cerevisiae sgs1 mgt1 strain, at 50.0 µM (retest, dose inferred, filed as 5.0)
Compounds without any hit were thinned out: in the full panel of roughly 79,000, 15% have a hit. Activity calls are given as the source filed them. Cut-off read from the data, not from the text of the source: active = growth inhibition above about 70%; inactive = the rest.
// allowed return values: active, inactive

Some entries whose results are on file:
Cc1c(OCc2cccc3ccccc23)ccc2c(=O)cc(SCCN3CCOCC3)oc12	inactive
O=C1c2cccc(NCCCNCCO)c2C(=O)c2cccc(NCCCNCCO)c21	inactive
O=[N+]([O-])c1ccc(N/N=C/CC(O)(C(F)(F)F)C(F)(F)F)c([N+](=O)[O-])c1	active

Query string: Hey, what did the test say about CCn1c2ccccc2c2ccc(N=Cc3ccc(N(C)C)cc3)cc21 ?
Result string: inactive

Query string: GET /call?item= Oc1c(Cl)cc(Cl)cc1Cc1cc(Cl)cc(Cl)c1O returns the recorded outcome of this test.
Result string: active

Query string: What was the test verdict on CCOC(=O)C(CN)(c1ccccc1)c1ccccc1 ?
Result string: inactive

Query string: Which result was noted for this molecule in the test: O=C1C=C(O)c2ccccc2C1=O.[Ag]
Result string: active

---

Reported growth inhibition values for the following molecules.
- method_notes: NCI Yeast Anticancer Drug Screen. Data for the bub3 strain (AID 167)
- recorded_conditions: S. cerevisiae bub3 mutant strain, at 50.0 µM (retest, dose inferred, filed as 5.0), hits give high values
- Experimental: Growth inhibition of yeast strains with defined genetic alterations is measured as a screen for potential anti-cancer activity. Selected strains with alterations in DNA damage repair or cell cycle control were exposed to compounds and growth inhibition was measured relative to vehicle treated controls. The strain used in this assay is bub3
About 79,000 compounds went through this panel and 15% of them were active in at least one assay; those are over-represented in the sample as a whole.
A number alone suffices; assume %.

Here's what some known entries look like.
O=c1cc[nH]c2ccccc12	98
O=C(c1ccco1)N(C(=S)N1CCN(c2ccccn2)CC1)C1CCCCC1	40
OC1CC2CCCC(C1)C2 (stereo unspecified)	-10
CC(C)C1=CC23CCC4C(C)(C(=O)O)CCCC4(C)C2CC1C1C(=O)OC(=O)C13 (stereo unspecified)	99
CC[N+](CC)=c1ccc2nc3c(cc(N)c4ccccc43)oc-2c1	19

Query string: Give a short answer stating reported growth inhibition for CCCCCCCCCCCCc1ccc(S(=O)(=O)O)cc1.[Cu+2] .
Result string: 82

Query string: Find the measured growth inhibition of CC(C)(C)CC(C)(C)c1ccc(OCCO)cc1 and report it.
Result string: 99

Query string: State its growth inhibition for this molecule: O=C(O)/C(=C(/c1ccccc1)c1ccc(Cl)cc1)c1ccccc1
Result string: 99

Query string: Give recorded growth inhibition. CCCn1cnc2c(SCc3ccc(Cl)cc3)nc(N)nc21
Result string: 7

Query string: Consider the molecule O=C1/C(=C\c2ccc([N+](=O)[O-])cc2)Sc2scc(-c3ccc(O)c(O)c3)[n+]21 . State its measured growth inhibition.
Result string: 98

Query string: Name the recorded growth inhibition of the molecule listed here: O=C(O)c1ccc2c(c1)Cc1cc([N+](=O)[O-])ccc1-2
Result string: 0

Ref: PubChem BioAssay (NCI)
